Where do these numbers come from? They come from the supplement of paper PMC11208160.

# Assay Explanation: recombinant barcode read abundance after kanamycin selection (control-corrected) (log10(CPM+1)); higher = more efficient recombination; sequences stand for … in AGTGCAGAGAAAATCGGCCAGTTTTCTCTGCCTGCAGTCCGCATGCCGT…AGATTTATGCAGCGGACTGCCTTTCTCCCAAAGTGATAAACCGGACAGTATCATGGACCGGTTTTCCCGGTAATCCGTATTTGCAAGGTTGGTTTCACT; site = the 11-nt target
Measurement Type: recombinant barcode read abundance (log10)

ACCTCGGCTTGGGTTCTAACCTGTTGCTG (site TGGCAATCTAG)	0.0759
TTGCCGACTTGGGTTCTAACCTGTTGCCT (site TTGCCTACTAG)	0
CTACGTTCTTGGGTTCTAACCTGTTGCCT (site CCACGTTCTAG)	0.761
GTTTACGCTTGGGTTCTAACCTGTTGCCT (site GTTTACGCTAG)	1.96
CCAACACCTTGGGTTCTAACCTGTTGCCT (site CCAAGTCCTAG)	0.0965

Fill in recombinant barcode read abundance (log10) for each of the 8 sequences listed.
1. ATATCAACTTGGGTTCTAACCTGTTGCCG (site TCTGTGTCTTA)
2. CCTTAGCCTTGGGTTCTAACCTGTTGCCT (site CCTTAGCCTAG)
3. AACAGTGCTTGGGTTCTAACCTGTTGCCT (site AACATTGCTAG)
4. CTAAAACCTTGGGTTCTAACCTGTTGCCT (site GTAAAACCTAG)
5. ATCGTACCTTGGGTTCTAACCTGTTGCTG (site ATCGTACCTCA)
6. TGTCTGCCTTGGGTTCTAACCTGTTGCCT (site AGTCTGCCTAG)
7. GGAGAGGCTTGGGTTCTAACCTGTTGCCT (site GGAGAGGCTAG)
8. TAGTAAGCTTGGGTTCTAACCTGTTGCCT (site TAGTATCCTAG)

0.0298
0.385
0.0547
0.0969
0.123
0.104
1.54
0.088

Fill in recombinant barcode read abundance (log10) for each of the 3 sequences listed.
1. CGTTTCCCTTGGGTTCTAACCTGTTGCAG (site CGTTTCCCTCT)
2. TACCCACCTTGGGTTCTAACCTGTTGCCT (site GACCCACCTAG)
3. CTAATTGCTTGGGTTCTAACCTGTTGCAA (site CTAATTGCTTT)

[0.427, 0.262, 0.0868]

---

# Assay Explanation: recombinant barcode read abundance after kanamycin selection (control-corrected) (log10(CPM+1)); higher = more efficient recombination; sequences stand for … in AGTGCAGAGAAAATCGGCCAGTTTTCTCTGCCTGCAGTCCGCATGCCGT…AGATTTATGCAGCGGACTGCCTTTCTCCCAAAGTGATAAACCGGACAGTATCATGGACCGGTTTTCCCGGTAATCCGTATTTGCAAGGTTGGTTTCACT; site = the 11-nt target
Measurement Type: recombinant barcode read abundance (log10)
Numbers only.

TAAGGTCCTTGGGTTCTAACCTGTTGCTT (site TAAGGTCCTAA)	1.49
GGAACGTCTTGGGTTCTAACCTGTTGCTT (site GGAACGTCTAA)	1.06
GCCGATACTTGGGTTCTAACCTGTTGCCA (site AGTCTGCCTCA)	0.134
AGACGTCCTTGGGTTCTAACCTGTTGCTT (site AGACTTCCTAA)	0.15
CTAGGAGCTTGGGTTCTAACCTGTTGCGT (site CTAGAAGCTAC)	1.84

Fill in recombinant barcode read abundance (log10) for each of the 7 sequences listed.
1. GCTAGTCCTTGGGTTCTAACCTGTTGCGT (site GCTAGTCCTAC)
2. TGGGGTCCTTGGGTTCTAACCTGTTGCCT (site TGGTGTCCTAG)
3. CTCACGACTTGGGTTCTAACCTGTTGCAG (site GAATGAGCTAG)
4. CCTAGAGCTTGGGTTCTAACCTGTTGCCT (site CCTAGAACTAG)
5. CTTCAGCCTTGGGTTCTAACCTGTTGCCT (site CTTCACCCTAG)
6. CTCCAAGCTTGGGTTCTAACCTGTTGCCT (site CTACAAGCTAG)
7. GGGTCCACTTGGGTTCTAACCTGTTGCAT (site GGGTCCACTAA)

1. 2.14
2. 0.217
3. 0.245
4. 0.097
5. 0.259
6. 0.105
7. 0.481

Fill in recombinant barcode read abundance (log10) for each of the 8 sequences listed.
1. CAAACAACTTGGGTTCTAACCTGTTGCCT (site CAAACACCTAG)
2. GTGTATACTTGGGTTCTAACCTGTTGCCT (site GTATATACTAG)
3. TCAAGACCTTGGGTTCTAACCTGTTGCCG (site TCAAGACCTAG)
4. CTCCAAGCTTGGGTTCTAACCTGTTGCCT (site CTGCAAGCTAG)
5. TTGTATTCTTGGGTTCTAACCTGTTGCCT (site TTGTATTCTAG)
6. CACAGATCTTGGGTTCTAACCTGTTGCTT (site CAAAGATCTAA)
7. AGACGTACTTGGGTTCTAACCTGTTGCCT (site AGCCGTACTAG)
8. GGGAACCCTTGGGTTCTAACCTGTTGCTT (site GGGAACCCTGA)

1. 0.188
2. 1.12
3. 0.179
4. 0.0619
5. 0.679
6. 0.14
7. 0.102
8. 0.0941

---

Exercise: state measured recombinant UMI read abundance (log10) for each of the sequences provided.
# Assay Explanation: recombinant UMI read abundance after kanamycin selection (control-corrected) (log10(CPM+1)); higher = more efficient recombination; extreme values may be limits of the assay; sequences stand for … in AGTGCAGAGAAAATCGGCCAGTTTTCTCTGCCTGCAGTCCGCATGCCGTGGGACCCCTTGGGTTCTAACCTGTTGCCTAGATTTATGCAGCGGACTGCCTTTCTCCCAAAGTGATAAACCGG…AGGTTGGTTTCACT; site = the 11-nt donor
Numbers only.

GTTCCAGCATGGACCGGTTTTCCCGGTAATCCGTATTTGCA (site GTTCAAGCTTG)	0
TCACAGCCATGGACCGGTTTTCCCGGTAATCCGTATTTGCA (site TCACAGCCTTG)	0.816
CCGTTTACATGGACCGGTTTTCCCGGTAATCCGTATTTGTT (site CCGTTTACTAG)	0

Fill in recombinant UMI read abundance (log10) for each of the 2 sequences listed.
1. CTATTATCATGGACCGGTTTTCCCGGTAATCCGTATTTGAC (site CTACTATCTGT)
2. CCTAATACATGGACCGGTTTTCCCGGTAATCCGTATTTGCC (site CCTAATACTGT)

1. 1.96
2. 0

---

# Assay Explanation: recombinant UMI read abundance after kanamycin selection (control-corrected) (log10(CPM+1)); higher = more efficient recombination; extreme values may be limits of the assay; sequences stand for … in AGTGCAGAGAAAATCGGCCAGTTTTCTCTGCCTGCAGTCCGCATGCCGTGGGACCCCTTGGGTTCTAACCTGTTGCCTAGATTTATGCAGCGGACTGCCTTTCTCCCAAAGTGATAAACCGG…AGGTTGGTTTCACT; site = the 11-nt donor
Measurement Type: recombinant UMI read abundance (log10)
One number for each entry.

Reference set (3 entries):
TGTAAGCCATGGACCGGTTTTCCCGGTAATCCGTATTTGAC (site TGTAAGCCTGT)	0
CATTAGGCATGGACCGGTTTTCCCGGTAATCCGTATTTGCT (site CATTAGGCTAG)	1.54
ATCTAGACATGGACCGGTTTTCCCGGTAATCCGTATTTGAC (site ATCTAGACTGT)	2.68

Fill in recombinant UMI read abundance (log10) for each of the 2 sequences listed.
1. GGTCCGTCATGGACCGGTTTTCCCGGTAATCCGTATTTGTT (site GGTCCGTCTAA)
2. CCCGAAGCATGGACCGGTTTTCCCGGTAATCCGTATTTGTT (site CCCGAAGCTAA)

1. 0.00423
2. 1.18

---

# Assay Explanation: recombinant UMI read abundance after kanamycin selection (control-corrected) (log10(CPM+1)); higher = more efficient recombination; extreme values may be limits of the assay; sequences stand for … in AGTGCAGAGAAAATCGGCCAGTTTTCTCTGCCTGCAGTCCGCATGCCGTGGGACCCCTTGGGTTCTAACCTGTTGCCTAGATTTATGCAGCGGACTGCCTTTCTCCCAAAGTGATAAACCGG…AGGTTGGTTTCACT; site = the 11-nt donor
Exercise: state measured recombinant UMI read abundance (log10) for each of the sequences provided.
One number for each entry.

Reference set (3 entries):
TATGCACCATGGACCGGTTTTCCCGGTAATCCGTATTTGGT (site TATGCACCTAC)	0.0323
CTATTATCATGGACCGGTTTTCCCGGTAATCCGTATTTGAC (site CTAATATCTGT)	0
AATCGTCCATGGACCGGTTTTCCCGGTAATCCGTATTTGAT (site AAGCGTCCTAT)	0.432

Fill in recombinant UMI read abundance (log10) for each of the 3 sequences listed.
1. GTAGGTACATGGACCGGTTTTCCCGGTAATCCGTATTTGAC (site GTAGGTACTGG)
2. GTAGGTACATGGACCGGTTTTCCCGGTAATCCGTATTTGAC (site GTCGGTACTGT)
3. CCGTTTGCATGGACCGGTTTTCCCGGTAATCCGTATTTGCT (site CCGTTTGCTAG)

[0.351, 1.16, 0]

Fill in recombinant UMI read abundance (log10) for each of the 2 sequences listed.
1. GAATACTCATGGACCGGTTTTCCCGGTAATCCGTATTTGGA (site GAATACTCTTC)
2. ATATGCACATGGACCGGTTTTCCCGGTAATCCGTATTTGTA (site GTATGCACTTA)

1. 2.53
2. 0.909

Fill in recombinant UMI read abundance (log10) for each of the 6 sequences listed.
1. CGTGTGGCATGGACCGGTTTTCCCGGTAATCCGTATTTGCT (site CGTATGGCTAG)
2. GCATCTACATGGACCGGTTTTCCCGGTAATCCGTATTTGTG (site ACATCTACTCA)
3. CCATGCTCATGGACCGGTTTTCCCGGTAATCCGTATTTGAA (site CTATGCTCTTT)
4. GGTCAAACATGGACCGGTTTTCCCGGTAATCCGTATTTGTA (site GGTCTAACTTA)
5. GGTCCAACATGGACCGGTTTTCCCGGTAATCCGTATTTGGA (site GGTCCAACTTG)
6. CGGATATCATGGACCGGTTTTCCCGGTAATCCGTATTTGCT (site CGGACATCTAG)

1.01
0.6
0.015
0.0103
0.0106
0
